# Run Description: Inhibition of Mycobacterium tuberculosis shikimate kinase using shikimic acid substrate by measuring oxidation of NADH to NAD by pyruvate kinase and lactate dehydrogenase coupled enzyme assay based Dixon plot analysis
Measurement Label: pKi
The value called pKi is obtained by taking minus log10 of the concentration in mol/L.

Reported pKi for Cc1ccc(CO[C@@H]2CC(C(=O)O)=C[C@@H](O)[C@H]2O)cc1 was 3.78

Reported pKi for O=C(O)C1=C[C@@H](O)[C@@H](O)[C@H](OCc2ccc3ccccc3c2)C1 was 4.66

Reported pKi for O=C(O)C1=C[C@@H](O)[C@@H](O)[C@H](OCc2cccc([N+](=O)[O-])c2)C1 was 5.00

Reported pKi for N[C@H]1C=C(C(=O)O)C[C@@H](OCc2ccc3sccc3c2)[C@@H]1O was 3.38

Reported pKi for O=C(O)C1=C[C@@H](O)[C@@H](O)[C@H](OCc2ccc3sccc3c2)C1 was 4.37

Reported pKi for O=C(O)C1=C[C@@H](O)[C@@H](O)[C@H](OCc2cccc(F)c2)C1 was 3.74

Reported pKi for O=C(O)C1=C[C@@H](O)[C@@H](O)[C@H](OCc2c(F)c(F)c(F)c(F)c2F)C1 was 3.15

Reported pKi for O=C(O)C1=C[C@@H](O)[C@@H](O)[C@H](OCc2ccccc2)C1 was 3.44

Reported pKi for Cc1cccc(CO[C@@H]2CC(C(=O)O)=C[C@@H](O)[C@H]2O)c1 was 3.96

Reported pKi for COc1cccc(CO[C@@H]2CC(C(=O)O)=C[C@@H](O)[C@H]2O)c1 was 3.87

---

# Tested on: Helicobacter pylori
# Run Description: Antimicrobial activity against Helicobacter pylori clinical isolates assessed as inhibition of visible microbial growth incubated for 6 days by agar dilution method
# Format: functional
# Reported Conditions: 144 h
Measurement Label: MIC (µg/mL)
Supply the numeric figure in µg/mL, leaving out any unit text.

Reported MIC for COC(=O)C1=C[C@@H](O)[C@H](O)[C@H](OCc2cccc([N+](=O)[O-])c2)C1 was 128

Reported MIC for COC(=O)C1=C[C@@H](O)[C@@H](O)[C@H](n2cc(COc3ccccc3)nn2)C1 was 128

Reported MIC for COC(=O)C1=C[C@H](N)[C@@H](O)[C@H](OCc2ccc3ccccc3c2)C1 was 64

Reported MIC for CC1(C)S[C@@H]2[C@H](NC(=O)[C@H](N)c3ccccc3)C(=O)N2[C@H]1C(=O)O [AMPICILLIN] was 1

Reported MIC for COC(=O)C1=C[C@H](N)[C@@H](O)[C@H](OCc2ccc3sccc3c2)C1 was 256

Reported MIC for COC(=O)C1=C[C@@H](O)[C@@H](O)[C@H](n2cc(Cc3ccccc3)nn2)C1 was 256

Reported MIC for COC(=O)C1=C[C@@H](O)[C@@H](O)[C@H](OCc2ccc3sccc3c2)C1 was 4

---

# Assayed Target: Shikimate kinase (Helicobacter pylori (strain ATCC 700392 / 26695) (Campylobacterpylori))
# Sequence (P56073 whole entry): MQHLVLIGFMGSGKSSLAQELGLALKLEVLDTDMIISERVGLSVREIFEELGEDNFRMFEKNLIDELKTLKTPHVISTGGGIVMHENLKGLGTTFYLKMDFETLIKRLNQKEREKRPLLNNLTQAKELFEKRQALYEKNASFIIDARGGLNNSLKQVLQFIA
# Run Description: Inhibition of Helicobacter pylori shikimate kinase using shikimic acid substrate by measuring oxidation of NADH to NAD by pyruvate kinase and lactate dehydrogenase coupled enzyme assay based Dixon plot analysis
The following ranges of Ki define the classes used here: low-valued (below 1 µM), mid-valued (1 µM to below 40 µM), high-valued (40 µM or more)

Problem: Sort O=C(O)C1=C[C@@H](O)[C@@H](O)[C@H](OCc2cccc([N+](=O)[O-])c2)C1 into one of the categories.
Result: low-valued

Problem: Sort N[C@H]1C=C(C(=O)O)C[C@@H](OCc2ccc3ccccc3c2)[C@@H]1O into one of the categories.
Result: high-valued

Problem: Sort N[C@H]1C=C(C(=O)O)C[C@@H](OCc2ccc3sccc3c2)[C@@H]1O into one of the categories.
Result: high-valued

Problem: Sort O=C(O)C1=C[C@@H](O)[C@@H](O)[C@H](n2cc(Cc3ccccc3)nn2)C1 into one of the categories.
Result: high-valued

Problem: Sort O=C(O)C1=C[C@@H](O)[C@@H](O)[C@H](OCc2ccc3sccc3c2)C1 into one of the categories.
Result: low-valued

Problem: Sort Cc1ccc(CO[C@@H]2CC(C(=O)O)=C[C@@H](O)[C@H]2O)cc1 into one of the categories.
Result: mid-valued

Problem: Sort Cc1cccc(CO[C@@H]2CC(C(=O)O)=C[C@@H](O)[C@H]2O)c1 into one of the categories.
Result: mid-valued

Problem: Sort O=C(O)C1=C[C@@H](O)[C@@H](O)[C@H](OCc2ccccc2)C1 into one of the categories.
Result: mid-valued

---

# Run Description: Inhibition of Mycobacterium tuberculosis shikimate kinase
Measurement Label: Ki (µM)
Supply the numeric figure in µM, leaving out any unit text.

Reported Ki for N[C@H]1C=C(C(=O)O)C[C@@H](O)[C@@H]1O was 65

---

# Assayed Target: Shikimate kinase (Helicobacter pylori (strain ATCC 700392 / 26695) (Campylobacterpylori))
# Run Description: Inhibition of Helicobacter pylori shikimate kinase using shikimic acid substrate by measuring oxidation of NADH to NAD by pyruvate kinase and lactate dehydrogenase coupled enzyme assay based Dixon plot analysis
Field: pKi. Provide a value for each of the compounds that follow.
The value called pKi is obtained by taking minus log10 of the concentration in mol/L.

Reported pKi for O=C(O)C1=C[C@@H](O)[C@@H](O)[C@H](OCc2cccc(F)c2)C1 was 5.89

Reported pKi for O=C(O)C1=C[C@@H](O)[C@@H](O)[C@H](n2cc(COc3ccccc3)nn2)C1 was 4.17

Reported pKi for O=C(O)C1=C[C@@H](O)[C@@H](O)[C@H](OCc2ccc3ccccc3c2)C1 was 5.74

---

# Run Description: Inhibition of Mycobacterium tuberculosis shikimate kinase using shikimic acid substrate by measuring oxidation of NADH to NAD by pyruvate kinase and lactate dehydrogenase coupled enzyme assay based Dixon plot analysis
Measurement Label: Ki

Reported Ki for O=C(O)C1=C[C@@H](O)[C@@H](O)[C@H](n2cc(Cc3ccccc3)nn2)C1 was > 2000 µM

Reported Ki for N[C@H]1C=C(C(=O)O)C[C@@H](OCc2ccc3ccccc3c2)[C@@H]1O was > 2000 µM

Reported Ki for O=C(O)C1=C[C@@H](O)[C@@H](O)[C@H](n2cc(COc3ccccc3)nn2)C1 was > 2000 µM
